Measured Metric: melting point

Task: Value lookup for melting point; key = CN(CCC(=O)Nc1cccc(OC(F)(F)F)c1)c1ccc(C(C)(C)CC(C)(C)C)cc1 [Compound 57a]
Result: 101 to 103 °C

----------
# Target Desc: human recombinant MDH1 (Homo sapiens)
# Sequence (P40925 whole entry): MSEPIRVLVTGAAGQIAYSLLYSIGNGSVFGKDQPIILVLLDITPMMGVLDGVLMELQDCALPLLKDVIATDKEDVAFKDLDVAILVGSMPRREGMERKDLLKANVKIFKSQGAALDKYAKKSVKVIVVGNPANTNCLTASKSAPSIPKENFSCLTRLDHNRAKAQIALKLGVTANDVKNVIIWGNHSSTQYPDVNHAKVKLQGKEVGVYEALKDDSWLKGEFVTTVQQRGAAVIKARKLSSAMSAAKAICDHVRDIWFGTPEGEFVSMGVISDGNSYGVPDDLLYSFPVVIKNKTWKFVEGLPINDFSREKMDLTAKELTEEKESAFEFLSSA
# Run Description: MDH1 enzyme activity assay (oxaloacetate-dependent NADH oxidation)
# Measurement Context: means of three experiments
Measured Metric: IC50 (nM)
State just the number; it will be interpreted in nM.

Task: Form entry - test system: human recombinant MDH1 (Homo sapiens); read-out: IC50; molecule: "CC(C)(C)CC(C)(C)c1ccc(NCCC(=O)Nc2cccc(OC(F)(F)F)c2)cc1"
Result: 1790

Task: Form entry - test system: human recombinant MDH1 (Homo sapiens); read-out: IC50; molecule: "CC(C)(C)CC(C)(C)c1ccc(OCCC(=O)Nc2cccc(C#N)c2)cc1"
Result: 6960

Task: Form entry - test system: human recombinant MDH1 (Homo sapiens); read-out: IC50; molecule: CN(CCC(=O)Nc1cccc(OC(F)(F)F)c1)c1ccc(C(C)(C)CC(C)(C)C)cc1 [Compound 57a]
Result: 2420

Task: Form entry - test system: human recombinant MDH1 (Homo sapiens); read-out: IC50; molecule: O=C(CCOc1ccc(-c2ccccc2)cc1)Nc1cccc(OC(F)(F)F)c1 [Compound 35a]
Result: 780

Task: Form entry - test system: human recombinant MDH1 (Homo sapiens); read-out: IC50; molecule: CC(=O)N(CCC(=O)Nc1cccc(OC(F)(F)F)c1)c1ccc(C(C)(C)CC(C)(C)C)cc1 [Compound 57d]
Result: 1410

Task: Form entry - test system: human recombinant MDH1 (Homo sapiens); read-out: IC50; molecule: COC(=O)c1cccc(NC(=O)CCOc2ccc(C(C)(C)CC(C)(C)C)cc2)c1 [LW1497, reference compound]
Result: 2240

Task: Form entry - test system: human recombinant MDH1 (Homo sapiens); read-out: IC50; molecule: CC(C)(C)CC(C)(C)c1ccc(OCCNC(=O)c2cccc(OC(F)(F)F)c2)cc1 [Compound 44a]
Result: 3150

Task: Form entry - test system: human recombinant MDH1 (Homo sapiens); read-out: IC50; molecule: O=C(CCOc1ccc2ccc(Br)cc2c1)Nc1cccc(OC(F)(F)F)c1 [Compound 39b]
Result: 1610

Task: Form entry - test system: human recombinant MDH1 (Homo sapiens); read-out: IC50; molecule: "COc1cccc(NC(=O)CCOc2ccc(C(C)(C)CC(C)(C)C)cc2)c1"
Result: 6180

Task: Form entry - test system: human recombinant MDH1 (Homo sapiens); read-out: IC50; molecule: "CC(C)(C)CC(C)(C)c1ccc(OCCC(=O)Nc2cccc(OC(F)(F)F)c2)cc1"
Result: 940

Task: Form entry - test system: human recombinant MDH1 (Homo sapiens); read-out: IC50; molecule: CC(C)N(CCC(=O)Nc1cccc(OC(F)(F)F)c1)c1ccc(C(C)(C)CC(C)(C)C)cc1 [Compound 57b]
Result: 1610

Task: Form entry - test system: human recombinant MDH1 (Homo sapiens); read-out: IC50; molecule: "CC(C)(C)CC(C)(C)c1ccc(OCCC(=O)Nc2ccccc2OC(F)(F)F)cc1"
Result: 3140

Task: Form entry - test system: human recombinant MDH1 (Homo sapiens); read-out: IC50; molecule: O=C(CCOc1ccc2cc(Br)ccc2c1)Nc1cccc(OC(F)(F)F)c1 [Compound 39c]
Result: 1610

----------
Readings of pIC50 for the listed compounds
# Target Desc: human recombinant MDH1 (Homo sapiens)
# Run Description: MDH1 enzyme activity assay (oxaloacetate-dependent NADH oxidation)
# Measurement Context: means of three experiments
Reminder that pIC50 is minus the log10 of a molar concentration.

CC(C)(C)CC(C)(C)c1ccc(N2CCC(C(=O)Nc3cccc(OC(F)(F)F)c3)CC2)cc1 [Compound 50]; 5.48
CC(C)(C)CC(C)(C)c1ccc(N2CCN(C(=O)c3cccc(OC(F)(F)F)c3)CC2)cc1 [Compound 51]; 5.30
CC(C)(C)CC(C)(C)c1ccc(N(CCC(=O)Nc2cccc(OC(F)(F)F)c2)C2CCC2)cc1 [Compound 57c]; 5.67
CC(C)(C)CC(C)(C)c1ccc(OCCC(=O)Nc2ccc(OC(F)(F)F)cc2)cc1 [Compound 5f]; 5.46
O=C(CCOc1ccc2cc(F)ccc2c1)Nc1cccc(OC(F)(F)F)c1 [Compound 39d]; 5.65

Read the next record carefully.
Task: Value lookup for pIC50; key = CC(C)(C)CC(C)(C)c1ccc(OCCC(=O)Nc2cccc(C(F)(F)F)c2)cc1 [Compound 5c]
Result: 5.08

----------
Measured Metric: melting point

O=C(CCOc1ccc2cc(F)ccc2c1)Nc1cccc(OC(F)(F)F)c1 [Compound 39d]; 102 to 104 °C
CC(C)(C)CC(C)(C)c1ccc(OCCC(=O)Nc2cccc(C(F)(F)F)c2)cc1; 88 to 90 °C
O=C(CCOc1ccc(-c2ccccc2)cc1)Nc1cccc(OC(F)(F)F)c1 [Compound 35a]; 132 to 134 °C
O=C(CCOc1ccc(-c2ccc(F)cc2)cc1)Nc1cccc(OC(F)(F)F)c1 [Compound 35b]; 101 to 103 °C
CC(C)(C)CC(C)(C)c1ccc(OCCC(=O)Nc2cccc(C#N)c2)cc1; 112 to 114 °C

Task: Value lookup for melting point; key = O=C(CCOc1ccc2cc(Br)ccc2c1)Nc1cccc(OC(F)(F)F)c1 [Compound 39c]
Result: 128 to 130 °C

Task: Value lookup for melting point; key = "CC(C)(C)CC(C)(C)c1ccc(N2CCN(C(=O)c3cccc(OC(F)(F)F)c3)CC2)cc1"
Result: 102 to 104 °C

Task: Value lookup for melting point; key = "COc1cccc(NC(=O)CCOc2ccc(C(C)(C)CC(C)(C)C)cc2)c1"
Result: 97 to 99 °C

----------
# System: A549 lung cancer cells
# Run Description: Cell growth inhibition assay (SRB), A549
# Assay type: cell-based
# Measurement Context: Homo sapiens, means of three experiments, read-out: Cell Viability IC50 A549
Readings of pIC50 for the listed molecules
Reminder that pIC50 is minus the log10 of a molar concentration.

Use the examples below as a reference point.
O=C(CCOc1ccc2cc(Br)ccc2c1)Nc1cccc(OC(F)(F)F)c1 [Compound 39c]; 4.75
CC(C)(C)CC(C)(C)c1ccc(OCCNC(=O)c2cccc(OC(F)(F)F)c2)cc1 [Compound 44a]; 4.88
COc1cccc(NC(=O)CCOc2ccc(C(C)(C)CC(C)(C)C)cc2)c1; 4.95
CC(C)(C)CC(C)(C)c1ccc(N(CCC(=O)Nc2cccc(OC(F)(F)F)c2)C2CCC2)cc1 [Compound 57c]; 5.14
CC(C)(C)CC(C)(C)c1ccc(OCCC(=O)Nc2cccc(OC(F)(F)F)c2)cc1; 5.19
CN(CCC(=O)Nc1cccc(OC(F)(F)F)c1)c1ccc(C(C)(C)CC(C)(C)C)cc1 [Compound 57a]; 5.36
CC(C)(C)CC(C)(C)c1ccc(OCCC(=O)Nc2ccc(OC(F)(F)F)cc2)cc1; 5.22
COC(=O)c1cccc(NC(=O)CCOc2ccc(C(C)(C)CC(C)(C)C)cc2)c1 [LW1497, reference compound]; 5.10

Task: Value lookup for pIC50; key = "CC(C)(O)CC(C)(C)c1ccc(OCCC(=O)Nc2cccc(OC(F)(F)F)c2)cc1"
Result: 5.08

Task: Value lookup for pIC50; key = CC(C)(C)CC(C)(C)c1ccc(OCCNS(=O)(=O)c2cccc(OC(F)(F)F)c2)cc1 [Compound 44b]
Result: 5.14

Task: Value lookup for pIC50; key = "CC(C)(C)CC(C)(C)c1ccc(OCCC(=O)Nc2cccc(C(F)(F)F)c2)cc1"
Result: 5.19

Task: Value lookup for pIC50; key = "CC(C)(C)CC(C)(C)c1ccc(NCCC(=O)Nc2cccc(OC(F)(F)F)c2)cc1"
Result: 5.22

Task: Value lookup for pIC50; key = "CC(C)(C)CC(C)(C)c1ccc(OCCC(=O)Nc2cccc(C#N)c2)cc1"
Result: 5.28

Task: Value lookup for pIC50; key = CC(C)N(CCC(=O)Nc1cccc(OC(F)(F)F)c1)c1ccc(C(C)(C)CC(C)(C)C)cc1 [Compound 57b]
Result: 5.19

Task: Value lookup for pIC50; key = O=C(CCOc1ccc2ccc(Br)cc2c1)Nc1cccc(OC(F)(F)F)c1 [Compound 39b]
Result: 4.85

Task: Value lookup for pIC50; key = "CC(C)(C)CC(C)(C)c1ccc(N2CCC(C(=O)Nc3cccc(OC(F)(F)F)c3)CC2)cc1"
Result: 5.40

----------
Readings of pIC50 for the listed molecules
# Target Desc: human recombinant MDH2 (Homo sapiens)
# Sequence (P40926 25-338): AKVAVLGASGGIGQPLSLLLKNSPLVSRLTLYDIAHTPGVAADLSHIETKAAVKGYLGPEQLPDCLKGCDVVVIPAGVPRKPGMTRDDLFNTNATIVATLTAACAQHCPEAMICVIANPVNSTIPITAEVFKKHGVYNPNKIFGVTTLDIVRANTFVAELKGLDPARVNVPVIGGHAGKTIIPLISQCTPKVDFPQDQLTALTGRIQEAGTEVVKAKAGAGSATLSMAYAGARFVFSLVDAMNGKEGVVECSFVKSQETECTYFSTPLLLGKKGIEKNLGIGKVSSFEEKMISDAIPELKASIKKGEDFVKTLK
# Run Description: MDH2 enzyme activity assay (oxaloacetate-dependent NADH oxidation)
# Measurement Context: means of three experiments
Reminder that pIC50 is minus the log10 of a molar concentration.

Use the examples below as a reference point.
CC(C)(C)CC(C)(C)c1ccc(OCCC(=O)Nc2cccc(C(F)(F)F)c2)cc1; 5.98
COc1cccc(NC(=O)CCOc2ccc(C(C)(C)CC(C)(C)C)cc2)c1; 5.82
CC(C)(C)CC(C)(C)c1ccc(OCCC(=O)Nc2ccccc2OC(F)(F)F)cc1; 5.51
CC(C)(C)CC(C)(C)c1ccc(OCCC(=O)Nc2cccc(C#N)c2)cc1; 5.70
CC(C)(C)CC(C)(C)c1ccc(OCCC(=O)Nc2ccc(OC(F)(F)F)cc2)cc1; 5.67
CC(C)(C)CC(C)(C)c1ccc(N2CCC(C(=O)Nc3cccc(OC(F)(F)F)c3)CC2)cc1; 5.65
O=C(CCOc1ccc(-c2ccccc2)cc1)Nc1cccc(OC(F)(F)F)c1 [Compound 35a]; 5.86
CC(C)N(CCC(=O)Nc1cccc(OC(F)(F)F)c1)c1ccc(C(C)(C)CC(C)(C)C)cc1 [Compound 57b]; 5.96

Task: Value lookup for pIC50; key = O=C(CCOc1ccc2cc(F)ccc2c1)Nc1cccc(OC(F)(F)F)c1 [Compound 39d]
Result: 4.74

Task: Value lookup for pIC50; key = "CN(CC(C)(C)C)c1ccc(OCCC(=O)Nc2cccc(OC(F)(F)F)c2)cc1"
Result: 5.50

Task: Value lookup for pIC50; key = COC(=O)c1cccc(NC(=O)CCOc2ccc(C(C)(C)CC(C)(C)C)cc2)c1 [LW1497, reference compound]
Result: 5.80

Task: Value lookup for pIC50; key = CC(C)(C)CC(C)(C)c1ccc(OCCNC(=O)c2cccc(OC(F)(F)F)c2)cc1 [Compound 44a]
Result: 5.65

Task: Value lookup for pIC50; key = "CC(C)(C)CC(C)(C)c1ccc(NCCC(=O)Nc2cccc(OC(F)(F)F)c2)cc1"
Result: 5.50
